Reference source: ChEMBL document CHEMBL4480373

# measurement notes: Half life in human plasma at 1 umol/ml up to 96 hrs by RP-HPLC and LC/MS analysis
# Assay type: ADME, cell-free
Square brackets hold non-standard residues; d marks the D form. Peptide text beside a SMILES is read from it. Oic = O=C(O)[C@@H]1C[C@@H]2CCCC[C@@H]2N1; hArg = N=C(N)NCCCC[C@H](N)C(=O)O; ΔPro = O=C(O)[C@@H]1C=CCN1; Dab = NCC[C@H](N)C(=O)O
parameter: half-life at 1000 µM (h)
The answer is to be given in h; state only the numeric part.

N=C(N)NCCCC[C@H](N)C(=O)NCCCC[C@H](N)C(=O)N[C@@H](CCN)C(=O)N1[C@H](C(=O)N[C@@H](CCCNC(=N)N)C(=O)O)C[C@@H]2CCCC[C@@H]21 (H-K(hArg)[Dab][Oic]R-OH) = 54.9

Next:
Recorded half-life at 1000 µM of N=C(N)NCCCC[C@H](N)C(=O)NCCCC[C@H](N)C(=O)N[C@@H](CCN)C(=O)N1CC=C[C@H]1C(=O)N[C@@H](CCCNC(=N)N)C(=O)O (H-K(hArg)[Dab][ΔPro]R-OH) , please.
51.1

###

# target or test system: Neuropilin-1 (Homo sapiens)
# Sequence (O14786 whole entry): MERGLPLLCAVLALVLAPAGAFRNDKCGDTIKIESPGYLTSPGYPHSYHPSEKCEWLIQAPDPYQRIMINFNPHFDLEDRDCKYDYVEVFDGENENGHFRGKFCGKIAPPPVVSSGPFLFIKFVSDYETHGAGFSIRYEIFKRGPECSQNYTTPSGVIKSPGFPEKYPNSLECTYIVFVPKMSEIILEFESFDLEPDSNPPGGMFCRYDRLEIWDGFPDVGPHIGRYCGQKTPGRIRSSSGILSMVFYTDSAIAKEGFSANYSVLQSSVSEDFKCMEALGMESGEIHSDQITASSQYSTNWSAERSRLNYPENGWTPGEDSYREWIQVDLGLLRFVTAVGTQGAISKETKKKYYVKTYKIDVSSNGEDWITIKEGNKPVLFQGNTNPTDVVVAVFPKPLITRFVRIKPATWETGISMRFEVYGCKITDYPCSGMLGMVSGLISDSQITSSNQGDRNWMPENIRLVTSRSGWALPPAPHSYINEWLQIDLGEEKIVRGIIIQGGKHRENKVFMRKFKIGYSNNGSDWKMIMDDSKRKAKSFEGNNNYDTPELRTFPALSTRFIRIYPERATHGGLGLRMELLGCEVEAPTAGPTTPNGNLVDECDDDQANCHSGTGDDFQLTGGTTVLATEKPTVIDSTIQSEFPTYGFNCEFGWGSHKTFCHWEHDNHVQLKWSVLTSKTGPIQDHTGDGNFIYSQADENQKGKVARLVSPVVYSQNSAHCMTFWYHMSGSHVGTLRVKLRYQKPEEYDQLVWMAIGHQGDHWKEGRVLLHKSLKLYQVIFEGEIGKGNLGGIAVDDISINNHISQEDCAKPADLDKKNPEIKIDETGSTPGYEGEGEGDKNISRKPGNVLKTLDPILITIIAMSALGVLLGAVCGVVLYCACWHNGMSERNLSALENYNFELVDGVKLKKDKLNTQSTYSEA
# measurement notes: Inhibition of human biotinylated VEGF-A165 binding to recombinant human NRP1 receptor at 100 uM after 2 hrs by chemiluminescence analysis relative to control
Square brackets hold non-standard residues; d marks the D form. Peptide text beside a SMILES is read from it. Oic = O=C(O)[C@@H]1C[C@@H]2CCCC[C@@H]2N1; Pip(4-aza) = O=C(O)[C@@H]1CNCCN1; hArg = N=C(N)NCCCC[C@H](N)C(=O)O; ΔPro = O=C(O)[C@@H]1C=CCN1; Aze = O=C(O)[C@@H]1CCN1; Dab = NCC[C@H](N)C(=O)O
Each item that follows carries a reported inhibition.
The answer is to be given in %; state only the numeric part.

Study these solved cases before continuing.
N=C(N)NCCCC[C@H](N)C(=O)NCCCC[C@H](N)C(=O)N[C@@H](CCN)C(=O)N1CCC[C@H]1C(=O)N[C@@H](CCCNC(=N)N)C(=O)O (H-K(hArg)[Dab]PR-OH) = 79.8
N=C(N)NCCCC[C@H](N)C(=O)NCCCC[C@H](N)C(=O)N[C@@H](CCN)C(=O)N1CC[C@H]1C(=O)N[C@@H](CCCNC(=N)N)C(=O)O (H-K(hArg)[Dab][Aze]R-OH) = 78.8

Recorded inhibition of N=C(N)NCCCC[C@H](N)C(=O)NCCCC[C@H](N)C(=O)N[C@@H](CCN)C(=O)N1[C@H](C(=O)N[C@@H](CCCNC(=N)N)C(=O)O)C[C@@H]2CCCC[C@@H]21 (H-K(hArg)[Dab][Oic]R-OH) , please.
83

Recorded inhibition of N=C(N)NCCCC[C@H](N)C(=O)NCCCC[C@H](N)C(=O)N[C@@H](CCN)C(=O)N1CCNC[C@H]1C(=O)N[C@@H](CCCNC(=N)N)C(=O)O (H-K(hArg)[Dab][Pip(4-aza)]R-OH) , please.
51.8

Recorded inhibition of N=C(N)NCCCC[C@H](N)C(=O)NCCCC[C@H](N)C(=O)N[C@@H](CCN)C(=O)N1CC=C[C@H]1C(=O)N[C@@H](CCCNC(=N)N)C(=O)O (H-K(hArg)[Dab][ΔPro]R-OH) , please.
87.1
